B1: HEEH_KT_rd6_3632 (parent)
chain: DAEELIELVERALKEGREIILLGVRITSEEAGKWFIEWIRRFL

- Variants of: B1
- procedure_summary: folding stability dG (cDNA display proteolysis); higher = more stable
- run_parameters: PBS, room temperature
Each item that follows carries a reported folding stability dG.
Output should be the measured figure followed by the unit it is expressed in.

>>> df
   mutant_id  experimental_endpoint  experimental_value
0       A31T   folding stability dG       3.86 kcal/mol

### Prompt State the recorded folding stability dG for this entry: T27V
### Response 3.91 kcal/mol

### Prompt State the recorded folding stability dG for this entry: I20P
### Response 2.65 kcal/mol

### Prompt State the recorded folding stability dG for this entry: L43G
### Response 3.03 kcal/mol

### Prompt State the recorded folding stability dG for this entry: I19P
### Response 2.74 kcal/mol

### Prompt State the recorded folding stability dG for this entry: I26K
### Response 3.26 kcal/mol

Measured values drawn from the MegaScale stability set (Tsuboyama et al. 2023) for this set.
